Test system: HSC-4
PROTOCOL DETAILS: Cytotoxicity against human HSC4 cells
Assay type: functional
ASSAY READOUT: log10(CC50) (log10 of the value in µM)
Friendly reminder: values = log10 of CC50, unit µM.

Field: example entries. Status: answers known.
CN(C)CC(CSCCO)C(=O)c1ccc([N+](=O)[O-])cc1 (configuration not stated) | 2.42
COc1ccc(C(=O)C(CO)CN(C)C)cc1 (configuration not stated) | 0.72
C=C(CN(C)C)C(=O)c1ccc(Cl)cc1 | 0.81
C=C(CN(C)C)C(=O)c1ccc(C)cc1 | 0.88

Moving on to the next compound.
State the recorded log10(CC50) for this entry: C=C(CN(C)C)C(=O)c1ccccc1 1.52

Value source: ChEMBL document CHEMBL1150245
